# study-system: HLA-A*30:01
# test-description: IEDB peptide-MHC binding, purified MHC/competitive/radioactivity; filed as Kd, often an IC50 or EC50 that approximates it; bounds were set here for any values at or beyond the usual limits of such assays
# protocol-conditions: source organism: Dengue virus 1 Brazil/97-11/1997
result-type: Kd (nM)
Numbers only, in nM.

Reference set (2 entries):
item-sequence	study-system	unit-label	Kd
IVREAIKRK	HLA-A*30:01	nM	97.7
RSRWSRKML	HLA-A*30:01	nM	90.4

Field Kd (entry AEALKGMPIR ) reads 1260

* * *

# study-system: HLA-A*31:01
# test-description: IEDB peptide-MHC binding, purified MHC/competitive/radioactivity; filed as Kd, often an IC50 or EC50 that approximates it; bounds were set here for any values at or beyond the usual limits of such assays
# protocol-conditions: source organism: SARS coronavirus Tor2
result-type: Kd (µM)
Give bare numbers, in µM.

Below, 3 sequences whose answers are already recorded.
item-sequence	unit-label	Kd
NTCDGNTFTY	µM	0.0334
GVAMPNLYK	µM	1.65
TFFIFNKLVK	µM	1.55

Would you kindly look at the next entry?
Noted for SFGGASCCLY : its Kd reads 2.5
